system: V79; test: Mammalian cell cytotoxicity test in chinese hamster V79 cells (clonogenic cytotoxicity); type: functional, cell-based; settings: Cricetulus griseus, V79; read-out: IC50
measure_name: IC50 (µg/mL)
Your answer should be a plain number; it is taken to be in µg/mL.

Consider the following illustrative entries.
[
  {
    "molecule": "COc1c(N2CCC(N)C2)c(F)cc2c(=O)c(C(=O)O)cn(-c3ccc(F)cc3F)c12 (centres undefined)",
    "IC50 [µg/mL]": 290
  },
  {
    "molecule": "Cc1c(F)c(N2CCC(N)C2)c(C(F)(F)F)c2c1c(=O)c(C(=O)O)cn2C1CC1 (centres undefined)",
    "IC50 [µg/mL]": 290
  },
  {
    "molecule": "NC1CCN(c2c(F)cc3c(=O)c(C(=O)O)cn(-c4ccc(F)cc4F)c3c2Cl)C1 (centres undefined)",
    "IC50 [µg/mL]": 89
  },
  {
    "molecule": "NC1CCN(c2c(F)cc3c(=O)c(C(=O)O)cn(C4CC4)c3c2[N+](=O)[O-])C1 (centres undefined)",
    "IC50 [µg/mL]": 69
  },
  {
    "molecule": "NC1CCN(c2c(F)c(F)c3c(=O)c(C(=O)O)cn(C4CC4)c3c2F)C1 (centres undefined)",
    "IC50 [µg/mL]": 100
  }
]

Please fill in: IC50 reported for CCNCC1CCN(c2c(F)c(C)c3c(=O)c(C(=O)O)cn(C4CC4)c3c2F)C1 (centres undefined) = 9

In plain terms, NC1CCN(c2c(F)cc3c(=O)c(C(=O)O)cn(C4CC4)c3c2C(F)(F)F)C1 (stereo in doubt; 45) has a documented IC50 of 300

----------
Quick reference: IC50 of the listed items.
tested on: V79; experiment: Mammalian cell cytotoxicity test in chinese hamster V79 cells (clonogenic cytotoxicity); type: functional, cell-based; conditions: Cricetulus griseus, V79; read-out: IC50

Worked cases, answers included:
[
  {
    "compound": "NC1CCCN(c2cc3c(cc2F)c(=O)c(C(=O)O)cn3C2CC2)C1 (stereo not given)",
    "measure_name": "IC50",
    "reported_result": "> 500 µg/mL"
  },
  {
    "compound": "NC1CCN(c2nc3c(cc2F)c(=O)c(C(=O)O)cn3C2CC2)C1 (stereo not given)",
    "measure_name": "IC50",
    "reported_result": "98 µg/mL"
  },
  {
    "compound": "CC1(CN)CCN(c2c(F)cc3c(=O)c(C(=O)O)cn(C4CC4)c3c2Cl)C1 (stereo not given)",
    "measure_name": "IC50",
    "reported_result": "8 µg/mL"
  }
]

For CCNCC1CCN(c2c(F)cc3c(=O)c(C(=O)O)cn(C4CC4)c3c2[N+](=O)[O-])C1 (stereo not given) the compound record lists IC50 as 67 µg/mL

Recorded result, COc1c(F)c(N2CCC(N)C2)c(Cl)c2c1c(=O)c(C(=O)O)cn2C1CC1 (stereo not given) , IC50: > 500 µg/mL

Entry under test: CNCC1(C)CCN(c2c(F)cc3c(=O)c(C(=O)O)cn(C4CC4)c3c2OC)C1 (stereo not given) . Its IC50 was 120 µg/mL

# IC50 (compound: CSc1c(N2CCC(N)C2)c(F)cc2c(=O)c(C(=O)O)cn(C3CC3)c12 (stereo not given) ) is 31 µg/mL

The compound listed as NCC1CCN(c2c(F)cc3c(=O)c(C(=O)O)cn(C4CC4)c3c2C(F)(F)F)C1 (stereo not given) shows IC50 equal to 38 µg/mL

Recorded result, NCC1CCN(c2c(F)cc3c(=O)c(C(=O)O)cn(C4CC4)c3c2F)C1 (stereo not given) , IC50: 11 µg/mL

Value of IC50 reported for the compound CCNCC1CCN(c2c(F)cc3c(=O)c(C(=O)O)cn(CCF)c3c2F)C1 (stereo not given) is > 500 µg/mL

Memo: CCNCC1CCN(c2c(F)cc3c(=O)c(C(=O)O)cn(CCO)c3c2F)C1 (stereo not given) , reported IC50: > 500 µg/mL

The compound identified as CNCC1(C)CCN(c2cc3c(cc2F)c(=O)c(C(=O)O)cn3C2CC2)C1 (stereo not given) registered its IC50 at 205 µg/mL

Entry CC1(N)CCN(c2c(F)cc3c(=O)c(C(=O)O)cn(-c4ccc(F)cc4F)c3c2C(F)(F)F)C1 (stereo not given) , IC50 reported as 18 µg/mL

Briefly, IC50 measured for CCNCC1CCN(c2c(F)c(NC(C)=O)c3c(=O)c(C(=O)O)cn(C4CC4)c3c2F)C1 (stereo not given) : > 500 µg/mL

compound COc1c(N2CCCC(N)C2)c(F)cc2c(=O)c(C(=O)O)cn(C3CC3)c12 (stereo not given) , IC50 observed: 69 µg/mL

Measured IC50, Nc1c(F)c(N2CCC(N)C2)cc2c1c(=O)c(C(=O)O)cn2C1CC1 (stereo not given) : 54 µg/mL

Recorded result, O=C(O)c1cn(C2CC2)c2c(F)c(N3CCNCC3)c(F)cc2c1=O , IC50: 47 µg/mL

Value of measured IC50 for the entry CC1(N)CCN(c2c(F)cc3c(=O)c(C(=O)O)cn(C4CC4)c3c2C(F)(F)F)C1 (stereo not given) : 110 µg/mL

Reported IC50 for CCNCC1CCN(c2c(F)cc3c(=O)c(C(=O)O)cn(CC4CC4)c3c2F)C1 (stereo not given) was 240 µg/mL

Lookup result for CC1CN(c2c(F)cc3c(=O)c(C(=O)O)cn(C4CC4)c3c2F)CC(C)N1 (stereo not given) ; measured IC50: 150 µg/mL

----------
test system: V79; assay: Mammalian cell cytotoxicity test in chinese hamster V79 cells (clonogenic cytotoxicity); assay type: functional, cell-based; settings: Cricetulus griseus, V79; read-out: IC50
Cut-off 100 µg/mL on IC50: below means true (1), at or above means false (0).

[
  {
    "compound": "CCNCC1CCN(c2c(F)cc3c(=O)c(C(=O)O)cn(NC)c3c2F)C1 (centres undefined)",
    "assayed_system": "V79",
    "group": "false (0)"
  },
  {
    "compound": "O=C(O)c1cn(C2CC2)c2nc(N3CCNCC3)c(F)cc2c1=O",
    "assayed_system": "V79",
    "group": "false (0)"
  },
  {
    "compound": "CC1(CN)CCN(c2cc3c(cc2F)c(=O)c(C(=O)O)cn3C2CC2)C1 (centres undefined)",
    "assayed_system": "V79",
    "group": "true (1)"
  },
  {
    "compound": "CCNCC1CCN(c2c(F)cc3c(=O)c(C(=O)O)cn(CC)c3c2F)C1 (centres undefined)",
    "assayed_system": "V79",
    "group": "false (0)"
  },
  {
    "compound": "NCC1CCN(c2c(F)cc3c(=O)c(C(=O)O)cn(C4CC4)c3c2Cl)C1 (centres undefined)",
    "assayed_system": "V79",
    "group": "true (1)"
  },
  {
    "compound": "CCNCC1CCN(c2c(F)cc3c(=O)c(C(=O)O)cn(C4CC4)c3c2C(F)(F)F)C1 (centres undefined)",
    "assayed_system": "V79",
    "group": "false (0)"
  },
  {
    "compound": "CC1CN(c2nc3c(cc2F)c(=O)c(C(=O)O)cn3C2CC2)CC(C)N1 (centres undefined)",
    "assayed_system": "V79",
    "group": "false (0)"
  },
  {
    "compound": "CCNCC1CCN(c2c(F)cc3c(=O)c(C(=O)O)cn(C4CC4)c3c2F)C1 (stereo in doubt; 12)",
    "assayed_system": "V79",
    "group": "true (1)"
  }
]

Next item in the queue.
stdin: Input NC1CCN(c2cc3c(cc2F)c(=O)c(C(=O)O)cn3C2CC2)C1 (stereo in doubt; 24a) ; condition: IC50 strictly below 100 µg/mL. Does it hold?
stdout: true (1)

----------
List of log10(MIC) values.
test: Antibacterial activity against five Gram-negative bacteria; format: functional; conditions: read-out: MIC
Form field - Quantity: MIC; Unit: µg/mL; Scale: log10

[
  {
    "compound": "NCC1CCN(c2cc3c(cc2F)c(=O)c(C(=O)O)cn3C2CC2)C1 (stereo not given)",
    "reported_result": -0.70
  }
]

Kindly note the recorded log10(MIC) for Nc1c(F)c(N2CCC(N)C2)cc2c1c(=O)c(C(=O)O)cn2C1CC1 (stereo not given) , which is -1.40

Consider COc1c(N2CCC(CN)C2)c(F)cc2c(=O)c(C(=O)O)cn(C3CC3)c12 (stereo not given) . Its measured log10(MIC) is -0.96

Cited source for all entries: ChEMBL document CHEMBL1125556
